system: SR leukemia; test: NCI-60 one-dose screen, 48 h; conditions: 10 µM unless noted
The panel holds about 83,000 compounds, 20% with a hit somewhere; the sample as a whole holds those more often. Activity calls are given as the source filed them. Rule for the calls: active = growth percent below 10; inactive = the rest.
Give one outcome, nothing more. List: active, inactive

O=S(=O)(Nc1ccc2ccccc2c1)N1CCCCC1	inactive
CCn1c(Cc2ccccc2Nc2c(Cl)cccc2Cl)nnc1SCC(=O)Nc1cccc(OC)c1	inactive
COc1ccc2nc(C)cc(Sc3nc4ccccc4s3)c2c1	active
O=C(C(=O)N1CCCC1)c1cn(CCCn2cc(C(=O)C(=O)N3CCCC3)c3cc(Br)ccc32)c2ccc(Br)cc12	inactive
COc1ccc(/C(C)=N/NC(=O)CSc2nc3ccccc3c(=O)n2CCc2ccc(S(N)(=O)=O)cc2)cc1	inactive
O=[N+]([O-])c1ccc(N/N=C\c2ccc(O)cc2O)nc1	inactive

Call for entry `CCCCCCCCCCCCNC(=O)N[C@H](C(=O)N[C@H]1/C=C/CCNC(=O)/C=C/[C@H](C)NC1=O)C(C)C` :
active

Call for entry `O=C(/C=C/c1ccc(F)cc1)N1CCN(C(=O)/C=C/c2ccc(C(F)(F)F)cc2)CC1` :
inactive

Call for entry CN1C(=O)NC(Cc2c[nH]c3c(Cl)cccc23)C1=O (centres undefined) :
inactive
